Entry source: ChEMBL document CHEMBL1147984

pKi: −log10 of the molar value.
Observed pKi for Aurora kinase B (Homo sapiens, UniProt Q96GD4), reported per entry below.

# CPD SMILES, pKi
records = [
    ("COc1cc2c(Nc3cc(CC(=O)Nc4cccc(F)c4F)[nH]n3)ncnc2cc1OCCCN1CCC[C@H]1CO", "> 9.00"),
    ("COc1cc2c(Nc3cc(CC(=O)Nc4cccc(F)c4F)[nH]n3)ncnc2cc1OCCCN1CCC(O)CC1", "> 9.00"),
    ("CCN(CCO)CCCOc1cc2ncnc(Nc3cc(CC(=O)Nc4cccc(F)c4F)[nH]n3)c2cc1OC", "> 9.00"),
]

// query Give pKi only, for COc1cc2c(Nc3cc(CC(=O)Nc4cccc(F)c4)[nH]n3)ncnc2cc1OCCCN1CCC[C@@H]1CO , using Aurora kinase B (Homo sapiens, UniProt Q96GD4) data.
// result 9.00

----------
Assay: physchem
Details: octanol/water, pH 7.4
Attribute: logD
Give a plain numeric answer without units written out.

Some solved cases for reference:
# CPD SMILES, logD
measured = [
    ("CCN(CCO)CCCOc1cc2ncnc(Nc3cc(CC(=O)Nc4cccc(F)c4F)[nH]n3)c2cc1OC", 1.9),
    ("O=C(Cc1cc(Nc2ncnc3cc(OCCCN4CCC[C@@H]4CO)ccc23)n[nH]1)Nc1cccc(F)c1F", 2.1),
    ("COc1cc2c(Nc3cc(CC(=O)Nc4cccc(F)c4F)[nH]n3)ncnc2cc1OCCCN1CCC[C@@H]1CO", 2),
    ("CCN(CCO)CCCOc1cc2ncnc(Nc3cc(CC(=O)Nc4cccc(F)c4)[nH]n3)c2cc1OC", 2.1),
]

Could you now consider this next molecule?
// query Given the molecule COc1cc2c(Nc3cc(CC(=O)Nc4cccc(F)c4F)[nH]n3)ncnc2cc1OCCCN(CCO)CC(C)C , write its reported logD.
// result 3.6

----------
Observed pKi for Aurora kinase A (Homo sapiens), reported per entry below.
Please treat pKi as minus the base-10 logarithm of the molar concentration.

Some solved cases for reference:
# CPD SMILES, ENDPOINT RESULT
records = [
    ("CCN(CCO)CCCOc1cc2ncnc(Nc3cc(CC(=O)Nc4cccc(F)c4F)[nH]n3)c2cc1OC", 6.44),
    ("CCN(CCO)CCCOc1cc2ncnc(Nc3cc(CC(=O)Nc4cccc(F)c4)[nH]n3)c2cc1OC", 6.72),
    ("COc1cc2c(Nc3cc(CC(=O)Nc4cccc(F)c4F)[nH]n3)ncnc2cc1OCCCN1CCC(CCO)CC1", 6.55),
    ("COc1cc2c(Nc3cc(CC(=O)Nc4ccc(F)cc4)[nH]n3)ncnc2cc1OCCCN1CCC(CO)CC1", 5.70),
    ("COc1cc2c(Nc3cc(CC(=O)Nc4cccc(F)c4F)[nH]n3)ncnc2cc1OCCCN1CCC[C@@H]1CO", 7.03),
]

// query Given the molecule CCCN(CCO)CCCOc1cc2ncnc(Nc3cc(CC(=O)Nc4cccc(F)c4)[nH]n3)c2cc1OC , write its reported pKi.
// result 6.66

// query Given the molecule O=C(Cc1cc(Nc2ncnc3cc(OCCCN4CCC[C@@H]4CO)ccc23)n[nH]1)Nc1cccc(F)c1 , write its reported pKi.
// result 5.85

// query Given the molecule CCCN(CCO)CCCOc1ccc2c(Nc3cc(CC(=O)Nc4cccc(F)c4F)[nH]n3)ncnc2c1 , write its reported pKi.
// result 6.46
